- assayed system: T1, human IL1RAP (hu-IL1RAP) on human cells (human, UniProt Q9NPH3 21-570)
- T1 sequence: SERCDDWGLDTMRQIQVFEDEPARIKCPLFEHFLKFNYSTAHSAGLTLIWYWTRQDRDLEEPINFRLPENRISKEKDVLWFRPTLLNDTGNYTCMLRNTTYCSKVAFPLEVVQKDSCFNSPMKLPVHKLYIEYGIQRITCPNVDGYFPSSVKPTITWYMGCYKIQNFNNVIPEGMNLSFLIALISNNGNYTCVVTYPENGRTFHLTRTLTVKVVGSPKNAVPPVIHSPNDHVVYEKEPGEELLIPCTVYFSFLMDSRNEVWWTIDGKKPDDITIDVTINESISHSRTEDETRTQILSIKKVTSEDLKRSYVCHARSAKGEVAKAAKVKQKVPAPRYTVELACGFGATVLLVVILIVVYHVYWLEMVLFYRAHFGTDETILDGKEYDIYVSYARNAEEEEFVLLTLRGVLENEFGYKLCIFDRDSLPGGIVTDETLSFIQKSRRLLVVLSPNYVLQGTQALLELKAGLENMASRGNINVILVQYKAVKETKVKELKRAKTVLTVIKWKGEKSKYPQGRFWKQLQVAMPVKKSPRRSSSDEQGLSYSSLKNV
- measurement protocol: cell-based or functional assay

# binder, HEK-Blue, IL-33, IC50 (IgG), nM
records = [
    ("h11C5 variant K13/H2 IgG (YID) (antibody, V domains shown, Human IgG1 N297G; also called 11C5-YID) VH: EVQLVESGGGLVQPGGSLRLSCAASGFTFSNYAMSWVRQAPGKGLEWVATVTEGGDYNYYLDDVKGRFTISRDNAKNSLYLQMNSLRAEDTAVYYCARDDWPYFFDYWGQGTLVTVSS VL: DIQMTQSPSSLSASVGDRVTITCRASENIYSNLAWYQQKPGKSPKLLVYGYKNLADGVPSRFSGSGSGTDYTLTISSLQPEDFATYYCQHFITTPRTFGGGTKVEIKR", 1.52),
    ("K10/H2 IgG (VL-A51Y, VH-R96D) (antibody, V domains shown) VH: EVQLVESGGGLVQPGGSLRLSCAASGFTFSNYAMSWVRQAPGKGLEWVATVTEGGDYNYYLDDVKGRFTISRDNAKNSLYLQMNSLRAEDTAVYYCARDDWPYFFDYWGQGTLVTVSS VL: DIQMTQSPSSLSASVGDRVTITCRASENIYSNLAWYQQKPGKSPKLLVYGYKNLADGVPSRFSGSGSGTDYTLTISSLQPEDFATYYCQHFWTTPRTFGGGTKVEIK", 1.06),
    ("K10 IgG (VL-A51Y) (antibody, V domains shown) VH: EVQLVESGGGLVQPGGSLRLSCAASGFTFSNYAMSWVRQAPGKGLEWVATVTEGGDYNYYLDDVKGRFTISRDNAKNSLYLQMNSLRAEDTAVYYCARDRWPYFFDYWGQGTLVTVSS VL: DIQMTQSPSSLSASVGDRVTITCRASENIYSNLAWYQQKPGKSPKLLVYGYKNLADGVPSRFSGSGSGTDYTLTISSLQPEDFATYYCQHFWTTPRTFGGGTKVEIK", 1.37),
    ("K17 IgG (VL-A51Y/W92K) (antibody, V domains shown) VH: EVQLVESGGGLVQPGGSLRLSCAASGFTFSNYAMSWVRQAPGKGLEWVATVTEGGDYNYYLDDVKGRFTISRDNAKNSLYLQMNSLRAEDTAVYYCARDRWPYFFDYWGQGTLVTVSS VL: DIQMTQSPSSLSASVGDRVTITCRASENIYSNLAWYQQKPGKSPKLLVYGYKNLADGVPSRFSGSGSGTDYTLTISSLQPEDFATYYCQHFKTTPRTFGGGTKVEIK", 2.74),
    ("h11C5 variant K17/H3 IgG (YKS) (antibody, V domains shown, Human IgG1 N297G; also called 11C5-YKS) VH: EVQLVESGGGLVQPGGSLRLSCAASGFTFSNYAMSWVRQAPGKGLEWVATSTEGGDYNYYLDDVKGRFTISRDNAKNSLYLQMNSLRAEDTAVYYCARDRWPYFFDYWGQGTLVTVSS VL: DIQMTQSPSSLSASVGDRVTITCRASENIYSNLAWYQQKPGKSPKLLVYGYKNLADGVPSRFSGSGSGTDYTLTISSLQPEDFATYYCQHFKTTPRTFGGGTKVEIKR", 2.5),
    ("Parent IgG Ab (full-length IgG of h11C5_C59Y/A43S) (antibody, V domains shown) VH: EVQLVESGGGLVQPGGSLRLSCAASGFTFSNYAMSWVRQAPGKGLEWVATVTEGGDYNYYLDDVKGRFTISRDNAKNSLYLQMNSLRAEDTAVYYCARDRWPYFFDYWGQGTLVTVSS VL: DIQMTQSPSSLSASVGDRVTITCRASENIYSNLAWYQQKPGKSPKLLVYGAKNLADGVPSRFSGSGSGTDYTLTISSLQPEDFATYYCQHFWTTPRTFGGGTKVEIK", 2.04),
    ("K13 IgG (VL-A51Y/W92I) (antibody, V domains shown) VH: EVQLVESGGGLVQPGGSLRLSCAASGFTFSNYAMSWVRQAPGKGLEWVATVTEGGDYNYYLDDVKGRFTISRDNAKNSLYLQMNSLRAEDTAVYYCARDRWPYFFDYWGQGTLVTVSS VL: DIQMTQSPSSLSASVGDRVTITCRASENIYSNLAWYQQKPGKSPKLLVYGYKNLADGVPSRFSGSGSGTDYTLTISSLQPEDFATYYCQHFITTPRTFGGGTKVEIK", 1.77),
    ("K10/H3 IgG (VL-A51Y, VH-V51S) (antibody, V domains shown) VH: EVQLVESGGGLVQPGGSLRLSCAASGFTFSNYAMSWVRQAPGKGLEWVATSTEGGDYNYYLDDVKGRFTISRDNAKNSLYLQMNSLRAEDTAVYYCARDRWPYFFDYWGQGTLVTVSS VL: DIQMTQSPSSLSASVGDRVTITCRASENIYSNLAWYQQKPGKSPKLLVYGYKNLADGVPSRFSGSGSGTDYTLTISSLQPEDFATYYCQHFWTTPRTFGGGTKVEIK", 0.354),
]
